# TARGET_OR_TEST_SYSTEM: Short transient receptor potential channel 4 (Mus musculus)
# Sequence (Q9QUQ5 whole entry): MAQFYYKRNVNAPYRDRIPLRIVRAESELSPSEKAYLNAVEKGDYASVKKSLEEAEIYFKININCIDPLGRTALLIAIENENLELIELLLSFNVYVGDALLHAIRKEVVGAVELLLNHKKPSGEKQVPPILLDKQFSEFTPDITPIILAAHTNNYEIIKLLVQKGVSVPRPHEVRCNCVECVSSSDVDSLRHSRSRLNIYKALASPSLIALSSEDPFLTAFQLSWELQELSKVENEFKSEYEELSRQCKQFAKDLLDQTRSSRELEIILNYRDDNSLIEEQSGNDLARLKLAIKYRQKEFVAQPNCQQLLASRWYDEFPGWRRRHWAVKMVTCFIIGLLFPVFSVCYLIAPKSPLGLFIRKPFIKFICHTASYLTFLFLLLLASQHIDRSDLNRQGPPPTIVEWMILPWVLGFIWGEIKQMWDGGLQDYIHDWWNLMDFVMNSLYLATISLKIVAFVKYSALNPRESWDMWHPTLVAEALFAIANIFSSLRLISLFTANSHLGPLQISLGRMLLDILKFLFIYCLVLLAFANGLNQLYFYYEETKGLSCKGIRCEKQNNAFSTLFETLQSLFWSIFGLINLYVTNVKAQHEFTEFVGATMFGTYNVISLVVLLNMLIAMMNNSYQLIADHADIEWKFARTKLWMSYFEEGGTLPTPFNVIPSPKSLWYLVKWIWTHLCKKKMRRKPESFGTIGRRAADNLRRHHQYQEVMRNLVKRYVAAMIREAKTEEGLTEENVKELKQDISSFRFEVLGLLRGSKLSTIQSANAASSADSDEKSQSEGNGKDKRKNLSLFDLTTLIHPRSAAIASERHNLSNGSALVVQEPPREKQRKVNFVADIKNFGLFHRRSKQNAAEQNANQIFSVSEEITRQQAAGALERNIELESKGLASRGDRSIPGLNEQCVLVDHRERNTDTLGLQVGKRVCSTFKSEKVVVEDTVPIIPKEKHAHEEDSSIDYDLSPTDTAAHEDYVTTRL
# PROTOCOL_DESCRIPTION: mouse TRPC4 channel inhibitors, dose response, cell-based, HEK293 TRPC4/mu-opioid, Fluo-4 calcium (AID 434942);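 note: potency of inhibitors blocking the TRPC4 calcium response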
# Type: functional
Activity calls are given as the source filed them.
In this section we review reported EC50 values for a set of compounds.
PROPERTY: EC50

>>> meas_value("Nc1c2c(nc3ccccc13)N(c1ccccc1)CC2")
"1.88 µM (active)"
>>> meas_value("Cn1c(NCc2ccccc2O)nc2ccccc21")
"7.5 µM (active)"
>>> meas_value("CCOCc1cn(CC(=O)c2ccc(Cl)cc2)c(C)nc1=N")
"2.99 µM (active)"
>>> meas_value("Cc1n[nH]c(C)c1CCCCOc1ccccc1")
"3.76 µM (active)"

====

# TARGET_OR_TEST_SYSTEM: Corticotropin-releasing factor receptor 2/Corticotropin-releasing factor-binding protein (Homo sapiens, UniProt P24387+Q13324)
# Sequence (Q13324 whole entry): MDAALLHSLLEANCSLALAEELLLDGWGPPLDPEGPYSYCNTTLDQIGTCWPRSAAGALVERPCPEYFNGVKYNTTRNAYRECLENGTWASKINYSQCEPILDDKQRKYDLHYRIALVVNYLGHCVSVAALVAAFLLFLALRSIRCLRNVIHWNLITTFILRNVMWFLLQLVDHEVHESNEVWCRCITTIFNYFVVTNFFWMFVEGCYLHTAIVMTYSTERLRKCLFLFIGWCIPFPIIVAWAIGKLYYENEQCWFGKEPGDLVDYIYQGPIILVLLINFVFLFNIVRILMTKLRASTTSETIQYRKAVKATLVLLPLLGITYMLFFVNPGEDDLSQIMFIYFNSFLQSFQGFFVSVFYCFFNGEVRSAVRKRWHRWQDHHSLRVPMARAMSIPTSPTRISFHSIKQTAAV
# Sequence (P24387 whole entry): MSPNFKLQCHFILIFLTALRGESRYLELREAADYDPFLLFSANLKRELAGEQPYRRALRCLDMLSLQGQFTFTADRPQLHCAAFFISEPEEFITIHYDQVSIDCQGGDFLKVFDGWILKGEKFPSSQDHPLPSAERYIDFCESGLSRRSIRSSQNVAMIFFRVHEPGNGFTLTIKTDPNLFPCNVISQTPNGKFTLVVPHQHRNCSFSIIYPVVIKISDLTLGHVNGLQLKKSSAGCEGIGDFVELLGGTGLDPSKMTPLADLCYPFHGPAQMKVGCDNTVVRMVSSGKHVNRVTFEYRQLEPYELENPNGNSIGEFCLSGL
# PROTOCOL_DESCRIPTION: activators of CRF receptor 2 with binding protein – uHTS hits, confirmation (AID 602473)
# Format: functional
# EXPERIMENTAL_SETUP: read-out: EC50_Mean
The source made the active and inactive calls.
PROPERTY: EC50

>>> meas_value("CCN1C(=O)C(=CNc2ccc(N3CCOCC3)c(Br)c2)C(=O)N(CC)C1=S")
"> 53 µM (inactive)"
>>> meas_value("CCn1nc(-c2ccccc2)c2nc3ccccc3nc21")
"6.66 µM (active)"
>>> meas_value("C=CCN(c1ccccc1)S(=O)(=O)c1cccc(C(=O)OCC(=O)NCCOC)c1")
"> 53 µM (inactive)"
>>> meas_value("COC(=O)C(F)(F)Sc1c(C)[nH]c2ccccc12")
"> 53 µM (inactive)"
>>> meas_value("COC(=O)c1cc(C#N)c(N(C)Cc2ccccc2)nc1C")
"> 53 µM (inactive)"
>>> meas_value("CC1CCc2c(C(=O)Nc3ccccn3)csc2C1 (stereo not given)")
"> 53 µM (inactive)"
>>> meas_value("CC1(c2ccc(OC(F)F)cc2)NC(=O)N(CC(=O)Nc2cccc(F)c2)C1=O (stereo not given)")
"4.52 µM (active)"
>>> meas_value("O=Nc1nc2ncccn2c1-c1ccccc1")
"> 53 µM (inactive)"
>>> meas_value("CN1CCN(CC(=O)Nc2cc(N(C)C)nc3ccccc23)CC1")
"> 53 µM (inactive)"
>>> meas_value("O=C(NCc1ccc(F)cc1)C(=O)NCC1OCCN1C(=O)c1ccc(Cl)cc1 (stereo not given)")
"> 53 µM (inactive)"

====

# PROTOCOL_DESCRIPTION: cytotoxicity toward NIH3T3 fibroblasts, dose response, counter-screen, cell-based, ATP luminescence, mouse fibroblasts (AID 2010);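 note: cells exposed to compound for about 90 hours before reading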
# Type: functional
The source made the active and inactive calls.
PROPERTY: EC50

>>> meas_value("COc1cc2nc(Nc3ccc(C)c(C)c3)nc(N)c2cc1OC")
"> 30 µM (not active)"
>>> meas_value("CCOc1ccc(-c2cc(C)[n+](CCO)c(-c3ccc(OCC)cc3)c2)cc1.[O-][Cl+3]([O-])([O-])[O-]")
"> 60 µM (inconclusive)"
>>> meas_value("O=C(CSc1cccc2cccnc12)N1CCCC1")
"8.3 µM (active)"
>>> meas_value("Cc1[nH]c2ccc(F)cc2c1CCN(Cc1cccnc1)C(S)=Nc1ccc(F)cc1")
"> 30 µM (not active)"
>>> meas_value("Fc1ccc(COc2ccc(Br)cc2CNCc2ccncc2)cc1")
"> 30 µM (not active)"
>>> meas_value("CC(C)(C)C1CCc2[nH]c3ccccc3c(=O)c2C1 (centres undefined)")
"> 60 µM (not active)"
>>> meas_value("COc1cccc(-c2cc3nc(-c4ccccc4)cc(N4CCC5(CC4)OCCO5)n3n2)c1")
"> 30 µM (not active)"
>>> meas_value("O=C(N/N=C\\c1ccc2c(c1)OCO2)c1ccc(Cn2cc(Br)c([N+](=O)[O-])n2)o1")
"> 60 µM (not active)"
>>> meas_value("CCOc1ccc(CN2CCN(Cc3cccn3-c3cccnc3)CC2CCO)cc1 (centres undefined)")
"> 60 µM (not active)"

====

In this section we review reported EC50 values for a set of compounds.
# TARGET_OR_TEST_SYSTEM: Lysosomal acid glucosylceramidase (Homo sapiens)
# Sequence (P04062 whole entry): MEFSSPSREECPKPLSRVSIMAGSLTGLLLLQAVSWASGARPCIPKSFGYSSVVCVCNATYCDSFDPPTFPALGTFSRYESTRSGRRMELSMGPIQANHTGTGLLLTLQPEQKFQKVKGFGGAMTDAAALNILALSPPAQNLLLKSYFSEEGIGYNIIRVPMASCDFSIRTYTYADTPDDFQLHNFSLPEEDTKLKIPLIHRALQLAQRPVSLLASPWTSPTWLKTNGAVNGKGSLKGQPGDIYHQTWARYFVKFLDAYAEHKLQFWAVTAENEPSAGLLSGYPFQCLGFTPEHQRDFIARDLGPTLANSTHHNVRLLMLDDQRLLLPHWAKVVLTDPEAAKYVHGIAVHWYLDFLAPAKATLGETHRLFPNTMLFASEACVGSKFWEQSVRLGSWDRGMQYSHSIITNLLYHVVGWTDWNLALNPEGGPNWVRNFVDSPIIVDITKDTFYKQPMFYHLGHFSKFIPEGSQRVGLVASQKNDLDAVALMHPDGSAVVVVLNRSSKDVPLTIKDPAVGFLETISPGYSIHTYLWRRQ
# PROTOCOL_DESCRIPTION: Dose response cell-based high throughput screening assay to identify enhancers of beta-glucosidase activity. [Related pubchem assays: 784 ]
# Type: functional
PROPERTY: EC50

>>> meas_value("Nc1nonc1-c1noc(CCCCCN2C(=O)c3ccccc3C2=O)n1")
"> 10 µM (not active)"
>>> meas_value("Cc1nonc1NC(=O)OCCN1CCOC1=O")
"> 50 µM (not active)"
>>> meas_value("OC(COCC1CC=CCC1)Cn1cnc2ccccc21 (centres undefined)")
"> 50 µM (not active)"
>>> meas_value("COCCCn1c(SCC(=O)OC2CCCCC2)nnc1-c1ccco1")
"> 50 µM (not active)"

====

In this section we review reported EC50 values for a set of molecules.
# TARGET_OR_TEST_SYSTEM: Peroxisome proliferator-activated receptor gamma/Nuclear receptor coactivator 3 (Homo sapiens)
# PROTOCOL_DESCRIPTION: TR-FRET dose response biochemical High Throughput Screening assay for agonists of the steroid receptor coactivator 3 (SRC-3) recruitment by the peroxisome proliferator-activated receptor gamma (PPAR gamma): non-selective agonists. [Related pubchem assays: 1301 (Confirmation screen.), 1048 (Primary screen.)]
# Format: functional
The source made the active and inactive calls.
PROPERTY: EC50

>>> meas_value("NS(=O)(=O)c1ccc(-c2ccc(/C=C3\\C(=O)Nc4cc(Cl)ccc43)o2)cc1")
"> 26.5 µM (not active)"
>>> meas_value("Cc1cc2cc(CNC(=O)c3ccc(S(=O)(=O)N4CCCCC4)cc3)ccc2n1C")
"8.51 µM (active)"
>>> meas_value("CCn1c(=O)cc(SCC(=O)Nc2ccc(C)cn2)c2ccccc21")
"> 79.4 µM (not active)"
>>> meas_value("O=C(Oc1ccccc1)Oc1ccc2c(c1)oc(=O)c1ccccc12")
"> 79.4 µM (not active)"

====

In this section we review reported EC50 values for a set of compounds.
# TARGET_OR_TEST_SYSTEM: Peroxisome proliferator-activated receptor gamma/Nuclear receptor coactivator 1 (Homo sapiens)
# Sequence (P37231 whole entry): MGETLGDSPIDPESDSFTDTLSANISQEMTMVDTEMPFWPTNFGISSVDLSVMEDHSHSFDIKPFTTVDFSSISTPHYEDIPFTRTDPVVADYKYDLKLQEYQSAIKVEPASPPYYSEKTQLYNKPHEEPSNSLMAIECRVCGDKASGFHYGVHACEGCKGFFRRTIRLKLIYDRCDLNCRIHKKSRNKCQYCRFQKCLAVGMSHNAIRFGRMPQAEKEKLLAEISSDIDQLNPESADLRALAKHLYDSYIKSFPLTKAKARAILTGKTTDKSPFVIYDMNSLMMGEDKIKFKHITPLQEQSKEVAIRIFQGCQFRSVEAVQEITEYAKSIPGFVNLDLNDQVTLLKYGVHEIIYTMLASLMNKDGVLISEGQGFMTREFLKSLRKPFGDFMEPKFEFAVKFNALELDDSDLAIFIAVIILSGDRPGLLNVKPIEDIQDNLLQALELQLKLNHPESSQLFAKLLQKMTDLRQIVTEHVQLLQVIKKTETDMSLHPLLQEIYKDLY
# Sequence (Q15788 whole entry, further chain): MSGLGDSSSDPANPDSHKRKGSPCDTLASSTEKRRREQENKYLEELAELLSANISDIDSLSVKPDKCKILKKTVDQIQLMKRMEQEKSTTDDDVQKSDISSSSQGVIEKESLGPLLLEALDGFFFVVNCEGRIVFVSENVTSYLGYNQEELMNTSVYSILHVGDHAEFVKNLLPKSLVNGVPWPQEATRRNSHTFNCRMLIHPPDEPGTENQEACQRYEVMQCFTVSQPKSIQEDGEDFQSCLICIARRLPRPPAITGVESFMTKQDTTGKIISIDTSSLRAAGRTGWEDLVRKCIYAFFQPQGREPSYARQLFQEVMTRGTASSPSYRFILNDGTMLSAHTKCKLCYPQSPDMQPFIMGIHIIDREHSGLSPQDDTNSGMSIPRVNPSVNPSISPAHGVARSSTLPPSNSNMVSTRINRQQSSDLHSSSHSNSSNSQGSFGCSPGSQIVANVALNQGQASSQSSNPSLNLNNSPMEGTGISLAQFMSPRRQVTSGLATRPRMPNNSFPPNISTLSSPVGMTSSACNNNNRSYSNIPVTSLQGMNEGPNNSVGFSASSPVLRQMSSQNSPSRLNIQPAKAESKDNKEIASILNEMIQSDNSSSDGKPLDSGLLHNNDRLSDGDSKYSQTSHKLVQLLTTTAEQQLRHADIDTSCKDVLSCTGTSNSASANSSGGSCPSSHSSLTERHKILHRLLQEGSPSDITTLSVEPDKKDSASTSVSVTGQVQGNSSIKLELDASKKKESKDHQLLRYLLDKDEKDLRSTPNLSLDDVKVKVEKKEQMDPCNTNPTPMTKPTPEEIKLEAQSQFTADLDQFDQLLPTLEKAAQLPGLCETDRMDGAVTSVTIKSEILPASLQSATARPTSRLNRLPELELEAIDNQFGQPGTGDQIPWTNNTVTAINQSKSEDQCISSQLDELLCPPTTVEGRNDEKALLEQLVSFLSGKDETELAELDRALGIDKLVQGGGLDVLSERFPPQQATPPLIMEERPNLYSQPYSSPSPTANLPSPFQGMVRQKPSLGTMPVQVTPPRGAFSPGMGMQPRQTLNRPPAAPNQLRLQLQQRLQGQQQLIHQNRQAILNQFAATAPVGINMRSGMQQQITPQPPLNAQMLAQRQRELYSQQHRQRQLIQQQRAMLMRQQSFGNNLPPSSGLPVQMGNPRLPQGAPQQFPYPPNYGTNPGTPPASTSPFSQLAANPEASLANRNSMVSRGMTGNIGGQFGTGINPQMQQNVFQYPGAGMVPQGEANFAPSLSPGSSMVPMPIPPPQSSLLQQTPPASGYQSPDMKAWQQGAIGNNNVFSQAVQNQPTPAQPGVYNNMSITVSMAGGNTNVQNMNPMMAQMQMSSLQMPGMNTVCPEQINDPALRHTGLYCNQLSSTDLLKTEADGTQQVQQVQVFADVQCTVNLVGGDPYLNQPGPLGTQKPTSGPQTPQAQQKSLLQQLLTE
# PROTOCOL_DESCRIPTION: TR-FRET dose response biochemical High Throughput Screening assay for agonists of the steroid receptor coactivator 1 (SRC-1) recruitment by the peroxisome proliferator-activated receptor gamma (PPAR gamma): non-selective agonists. [Related pubchem assays (depositor defined):AID1300, AID1808, AID504735, AID631]
# Type: protein assay
Calls of active or inactive are those of the source.
PROPERTY: EC50

>>> meas_value("CCn1c(=O)cc(SCC(=O)Nc2ccc(C)cn2)c2ccccc21")
"> 79.4 µM (inactive)"
>>> meas_value("Cc1cc2cc(CNC(=O)c3ccc(S(=O)(=O)N4CCCCC4)cc3)ccc2n1C")
"3.8 µM (active)"
>>> meas_value("NS(=O)(=O)c1ccc(-c2ccc(/C=C3\\C(=O)Nc4cc(Cl)ccc43)o2)cc1")
"19.7 µM (inactive)"
>>> meas_value("O=C(Oc1ccccc1)Oc1ccc2c(c1)oc(=O)c1ccccc12")
"> 79.4 µM (inactive)"

====

In this section we review reported AC50 values for a set of compounds.
# TARGET_OR_TEST_SYSTEM: Cytochrome P450 2D6 (Homo sapiens, UniProt P10635);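 note: CYP2D6 member of a cytochrome P450 panel assay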
# Sequence (P10635 whole entry): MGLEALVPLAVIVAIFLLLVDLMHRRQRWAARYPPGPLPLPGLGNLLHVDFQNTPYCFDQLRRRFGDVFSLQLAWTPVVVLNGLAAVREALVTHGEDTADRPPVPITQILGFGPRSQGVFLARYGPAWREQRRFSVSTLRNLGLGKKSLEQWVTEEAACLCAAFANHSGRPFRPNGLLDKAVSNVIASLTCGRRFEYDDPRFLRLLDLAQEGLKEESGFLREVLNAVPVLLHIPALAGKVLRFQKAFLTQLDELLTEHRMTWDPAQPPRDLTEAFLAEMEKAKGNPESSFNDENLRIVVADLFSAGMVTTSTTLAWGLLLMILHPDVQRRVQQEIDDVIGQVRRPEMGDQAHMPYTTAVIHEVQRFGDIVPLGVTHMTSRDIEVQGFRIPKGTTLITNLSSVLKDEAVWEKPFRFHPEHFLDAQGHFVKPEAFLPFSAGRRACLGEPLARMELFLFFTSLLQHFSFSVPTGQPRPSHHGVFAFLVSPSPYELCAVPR
PROPERTY: AC50

>>> meas_value("c1ccc2c(Nc3ccncc3)nc(-c3ccoc3)nc2c1")
"15.8 µM (inconclusive)"
>>> meas_value("CN(C)c1ccc(-c2cc(Nc3ccc(F)cc3)ncn2)cc1")
"39.8 µM (inconclusive)"
>>> meas_value("Nc1nc(Cc2ccccc2)nc(Cc2ccccc2)c1-c1ccccc1")
"3.16 µM (inconclusive)"
>>> meas_value("COc1ccccc1N1CCN(CCN(C(=O)C2CCCCC2)c2ccccn2)CC1")
"31.6 µM (inconclusive)"
>>> meas_value("Cn1cccc1C(=O)N1CCC2(CC1)CCN(c1ccncc1)CC2")
"25.1 µM (inconclusive)"
>>> meas_value("O=C(CSc1nc2ccccc2s1)NNC(=S)Nc1ccc(Br)cc1")
"3.55 µM (inconclusive)"
>>> meas_value("Cc1ccccc1-c1cc(NCc2ccccc2)ncn1")
"31.6 µM (inconclusive)"
>>> meas_value("Nc1nc(N)c(CCCCc2ccccc2)c(N)n1")
"3.98 µM (inconclusive)"
>>> meas_value("CN(C)C(=O)c1ccc(-c2nc(NCc3ccccc3)c3ccccc3n2)cc1")
"39.8 µM (inconclusive)"
>>> meas_value("COC(=O)[C@@]1(Cc2ccccc2)[C@H]2c3cc(C(=O)N4CCCC4)n(Cc4ccccn4)c3C[C@H]2CN1C(=O)c1ccccc1")
"39.8 µM (inconclusive)"
>>> meas_value("COc1ccccc1NC(=O)CN1CCN(CC(=O)Nc2ccc(OCc3ccccc3)cc2)CC1")
"20 µM (inconclusive)"
>>> meas_value("CCOc1ccccc1C1C(C(N)=O)=C(C)Nc2nc(-c3ccc(OC)cc3)nn21 (stereo unspecified)")
"1 µM (inconclusive)"
>>> meas_value("CN(C)c1ccc(-c2cncnc2-n2ccnc2)cc1")
"39.8 µM (inconclusive)"
>>> meas_value("COc1cccc(/C=N/NC(=O)c2c(-c3ccccc3)noc2C)c1")
"17.8 µM (inconclusive)"
>>> meas_value("c1ccc2c(c1)ncn2Cc1nnc2sc(-c3ccc4c(c3)OCO4)nn12")
"15.8 µM (inconclusive)"
>>> meas_value("Cc1ccccc1-c1cncnc1NCCN1CCOCC1")
"39.8 µM (inconclusive)"
>>> meas_value("CC(C)CN1CCCC2(CCN(C(=O)Oc3ccccc3)CC2)C1")
"20 µM (inconclusive)"
>>> meas_value("CC[C@H](c1ccc(O)cc1)[C@@H](CC)c1ccc(O)cc1")
"15.8 µM (inconclusive)"
>>> meas_value("Cc1ccc2c(CC(=O)OCc3cc(=O)n4c(n3)sc3ccccc34)coc2c1")
"31.6 µM (inconclusive)"
>>> meas_value("Cn1c(=O)c(C(=O)CN2CCOCC2)c(N)n(Cc2ccccc2)c1=O")
"7.94 µM (inconclusive)"
>>> meas_value("Fc1cccc(C2NC(S)=NC3=C2N2CCC3CC2)c1 (stereo unspecified)")
"3.16 µM (inconclusive)"
